Source of measurements: patent US20100168102A9

Measured IC50, listed per entry for reference.
target.entity: PKC epsilon (Homo sapiens)
Construct: purchased Invitrogen P2282
Sequence (Q02156 whole entry): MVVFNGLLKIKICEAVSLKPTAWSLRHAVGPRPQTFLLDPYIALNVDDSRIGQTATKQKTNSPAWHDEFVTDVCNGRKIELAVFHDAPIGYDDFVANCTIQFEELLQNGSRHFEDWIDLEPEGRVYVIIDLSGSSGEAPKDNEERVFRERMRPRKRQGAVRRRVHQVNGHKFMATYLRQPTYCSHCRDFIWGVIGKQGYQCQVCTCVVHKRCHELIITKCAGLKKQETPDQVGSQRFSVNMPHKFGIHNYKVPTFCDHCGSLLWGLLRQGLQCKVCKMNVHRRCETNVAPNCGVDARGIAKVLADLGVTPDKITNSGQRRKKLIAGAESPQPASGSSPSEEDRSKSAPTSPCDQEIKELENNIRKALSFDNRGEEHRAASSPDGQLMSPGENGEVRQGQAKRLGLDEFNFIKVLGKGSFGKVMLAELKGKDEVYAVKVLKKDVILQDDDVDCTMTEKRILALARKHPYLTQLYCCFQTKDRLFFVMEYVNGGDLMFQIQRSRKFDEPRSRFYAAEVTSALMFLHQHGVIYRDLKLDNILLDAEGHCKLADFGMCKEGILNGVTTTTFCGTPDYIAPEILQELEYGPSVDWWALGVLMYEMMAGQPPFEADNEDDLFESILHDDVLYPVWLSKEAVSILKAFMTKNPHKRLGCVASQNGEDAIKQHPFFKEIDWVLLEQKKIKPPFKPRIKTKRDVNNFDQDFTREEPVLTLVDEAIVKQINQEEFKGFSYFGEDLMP
assay.details: Biochemical assay for PKC epsilon (fluorescence polarization, Protein Kinase C Assay Kit, Red)
cond: compounds of Formula XIV, Table 3; read-out: IC50 μM PKCε
experimental.readout: IC50

compound="COc1cccc(CNC(=O)CC(N)c2ccc(C(=O)Nc3ccncc3)cc2)c1OC (centres unmarked)" target_entity="PKC epsilon (Homo sapiens)" experimental_readout=IC50 endpoint_result="5 to 50 µM"
compound="NC(CC(=O)NCc1cc(Cl)ccc1Cl)c1ccc(C(=O)Nc2ccncc2)cc1 (centres unmarked)" target_entity="PKC epsilon (Homo sapiens)" experimental_readout=IC50 endpoint_result="0.5 to 5 µM"
compound="NC(CC(=O)NCc1ccc(Cl)cc1Cl)c1ccc(C(=O)Nc2ccncc2)cc1 (centres unmarked)" target_entity="PKC epsilon (Homo sapiens)" experimental_readout=IC50 endpoint_result="0.5 to 5 µM"
compound="NC(CC(=O)NCCc1c[nH]c2ccccc12)c1ccc(C(=O)Nc2ccncc2)cc1 (centres unmarked)" target_entity="PKC epsilon (Homo sapiens)" experimental_readout=IC50 endpoint_result="0.5 to 5 µM"
compound="Cc1ccc2[nH]cc(CCNC(=O)CC(N)c3ccc(C(=O)Nc4ccncc4)cc3)c2c1 (centres unmarked)" target_entity="PKC epsilon (Homo sapiens)" experimental_readout=IC50 endpoint_result="0.5 to 5 µM"
compound="NC(CC(=O)NCCc1c(Cl)cccc1Cl)c1ccc(C(=O)Nc2ccncc2)cc1 (centres unmarked)" target_entity="PKC epsilon (Homo sapiens)" experimental_readout=IC50 endpoint_result="0.5 to 5 µM"
compound="CC(Cc1c[nH]c2ccccc12)NC(=O)CC(N)c1ccc(C(=O)Nc2ccncc2)cc1 (centres unmarked)" target_entity="PKC epsilon (Homo sapiens)" experimental_readout=IC50 endpoint_result="0.5 to 5 µM"
compound="NC(CC(=O)NCc1ccc(F)cc1)c1ccc(C(=O)Nc2ccncc2)cc1 (centres unmarked)" target_entity="PKC epsilon (Homo sapiens)" experimental_readout=IC50 endpoint_result="0.05 to 0.5 µM"
